- Tested Target: AmicoTA (Aminobacterium colombiense, UniProt D5EHC5)
- Sequence (D5EHC5 entry or part of it): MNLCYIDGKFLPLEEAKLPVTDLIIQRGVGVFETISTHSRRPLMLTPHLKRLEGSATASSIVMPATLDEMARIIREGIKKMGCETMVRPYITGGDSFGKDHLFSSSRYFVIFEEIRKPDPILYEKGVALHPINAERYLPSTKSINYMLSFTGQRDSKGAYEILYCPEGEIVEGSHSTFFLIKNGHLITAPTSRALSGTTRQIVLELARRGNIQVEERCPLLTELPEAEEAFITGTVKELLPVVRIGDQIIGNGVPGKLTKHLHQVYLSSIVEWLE
pKd: −log10 of the molar value.
Endpoint Name: pKd

N[C@H](CCC(=O)O)C(=O)O [D-glutamate] | 2.68

P. N[C@H](Cc1ccccc1)C(=O)O
Q. CC(C)C[C@@H](N)C(=O)O
// select label with min value of measured pKd from [ P , Q ] When you have decided, please share the label of that item.
Q
